Examples of compounds with documented IC50 follow.
Test system: SR
Test: CCK-8 proliferation, SR
Type: cell-based, Human
Details: Homo sapiens; Table B10, compounds designed based on the IRAK4 inhibitors; SR cells; read-out: Inhibitory activity (IC50, nM) on tumor cell proliferation, SR

- Compound: "O=C1CCN(c2cccc(CN3CCN(c4ccc(-n5cc(NC(=O)c6coc(-c7ccnc(NCC8CC8)c7)n6)c(C(F)F)n5)cc4)CC3)c2)C(=O)N1"
  IC50: "100 to 500 nM"
- Compound: "O=C1CCN(c2cccc(CN3CCN(Cc4ccc5c(c4)nc(NC(=O)c4cccc(C(F)(F)F)c4)n5[C@H]4CC[C@@H](CO)CC4)CC3)c2)C(=O)N1"
  IC50: "100 to 500 nM"
- Compound: "O=C1CCC(Nc2cccc(CN3CCC(N4CCN(c5ccc6c(c5)nc(NC(=O)c5cccc(C(F)(F)F)c5)n6[C@H]5CC[C@@H](CO)CC5)CC4)CC3)c2)C(=O)N1 (stereo partly drawn)"
  IC50: "500 to 1000 nM"
- Compound: "CC(C)Nc1cc(-n2ccc3cc(C#N)cnc32)ncc1C(=O)NC1CCN(Cc2ccc(C3CCC(=O)NC3=O)cc2)CC1 (stereo not drawn)"
  IC50: "500 to 1000 nM"
- Compound: "O=C1CCN(c2ccc(CN3CCN(c4ccc5c(c4)nc(NC(=O)c4cccc(C(F)(F)F)c4)n5[C@H]4CC[C@@H](CO)CC4)CC3)nc2)C(=O)N1"
  IC50: "100 to 500 nM"

# IC50 lookup, item O=C1CCN(c2ccc(CN3CCN(c4ccc5c(c4)nc(NC(=O)c4cccc(C(F)(F)F)c4)n5[C@H]4CC[C@@H](CO)CC4)CC3)cc2)C(=O)N1
100 to 500 nM

# IC50 lookup, item O=C1CCC(Nc2cccc(CN3CCN(Cc4ccc5c(c4)nc(NC(=O)c4cccc(C(F)(F)F)c4)n5C4CCC(CO)CC4)CC3)c2)C(=O)N1 (stereo not drawn)
100 to 500 nM

# IC50 lookup, item CC(C)Nc1cc(-n2ccc3cc(C#N)cnc32)ncc1C(=O)NC1CCN(Cc2ccc(C3CCC(=O)NC3=O)c(F)c2)CC1 (stereo not drawn)
500 to 1000 nM

# IC50 lookup, item O=C1CCN(c2ccc(CN3CCN(c4ccc(-n5cc(NC(=O)c6coc(-c7ccnc(NCC8CC8)c7)n6)c(C(F)F)n5)cc4)CC3)cn2)C(=O)N1
50 to 100 nM

# IC50 lookup, item CC[C@@H]1[C@H](F)C(=O)N[C@@H]1COc1nccc2cc(C(N)=O)c(OC)cc12 [PF06650833, reference compound]
1000 to 5000 nM

# IC50 lookup, item O=C1CCN(c2cccc(CN3CCC(N4CCN(c5ccc6c(c5)nc(NC(=O)c5cccc(C(F)(F)F)c5)n6[C@H]5CC[C@@H](CO)CC5)CC4)CC3)c2)C(=O)N1
500 to 1000 nM

# IC50 lookup, item O=C1CCC(c2ccc(CN3CCC(n4cc(NC(=O)c5cnn6ccc(N7CCOCC7)nc56)c(C(F)F)n4)CC3)cc2)C(=O)N1 (stereo not drawn)
100 to 500 nM

---

Examples of compounds with documented inhibition at 2 µM follow.
Molecular target: human Cereblon WT GST-tagged protein (Homo sapiens)
Construct: purchased CISBIO 64BDCRBNPEH
Sequence (Q96SW2 whole entry): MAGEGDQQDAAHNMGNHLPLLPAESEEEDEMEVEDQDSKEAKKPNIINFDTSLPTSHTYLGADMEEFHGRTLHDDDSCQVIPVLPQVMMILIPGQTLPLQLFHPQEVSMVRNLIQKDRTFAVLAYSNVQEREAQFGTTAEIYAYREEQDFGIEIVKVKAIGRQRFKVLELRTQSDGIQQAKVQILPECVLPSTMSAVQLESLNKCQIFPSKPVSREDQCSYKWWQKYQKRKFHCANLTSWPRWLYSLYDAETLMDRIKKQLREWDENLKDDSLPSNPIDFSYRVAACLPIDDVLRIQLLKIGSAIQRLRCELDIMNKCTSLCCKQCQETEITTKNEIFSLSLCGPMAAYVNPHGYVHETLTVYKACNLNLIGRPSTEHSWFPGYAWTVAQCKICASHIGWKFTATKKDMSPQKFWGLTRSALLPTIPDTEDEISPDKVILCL
Assay: CRBN binding, HTRF (CEREBLON BINDING kit)
Settings: Table II-2, CRBN binding screening, HTRF; at 2 µM; read-out: Inhibition rate (%) at 2 µM

- Compound: "COc1cc(C(=O)NC2CCN(Cc3ccc(C4CCC(=O)NC4=O)c(F)c3)CC2)c(F)cc1Nc1ncc(C(F)(F)F)c(Oc2cccc3c2C(=O)N(C)C3)n1 (stereo not drawn)"
  Result: "80 to 100%"
- Compound: "CC(C)(O)c1cc2nc(C3CCN(Cc4cc(C5CCC(=O)NC5=O)cnc4F)CC3)oc2cc1NC(=O)c1cccc(C(F)(F)F)n1 (stereo not drawn)"
  Result: "80 to 100%"

Let us move to another entry and its inhibition at 2 µM.
# inhibition at 2 µM lookup, item O=C1CCN(c2cncc(CN3CCC(n4cc(NC(=O)c5cnn6ccc(N7CCOCC7)nc56)c(C(F)F)n4)CC3)c2)C(=O)N1
60 to 80%
